method: ACEA_ER_80hr: ACEA Biosciences xCELLigence Real-Time Cell Analysis on Estrogen Receptor Agonism for Proliferation (AID 2282667)
setup.conditions: T47D proliferation, impedance (xCELLigence), 80 h
Results filed as inconclusive are left out. Active and inactive are the calls of the source. Rule for the calls: active = hit-call score of the fitted dose curve at least 0.9, where 1 is the maximum; inconclusive = response in the unintended direction; inactive = score below 0.9.
Classes used: active, inactive

{"molecule": "CCOC(=O)CCC(C)=O", "class.label": "inactive"}
{"molecule": "OCC1CCCO1 (stereo not drawn)", "class.label": "inactive"}
{"molecule": "OCC(F)(F)C(F)(F)C(F)(F)C(F)(F)C(F)(F)C(F)(F)CO", "class.label": "active"}
{"molecule": "O=c1[nH]cccc1O", "class.label": "inactive"}
{"molecule": "CC1CCCCC1", "class.label": "inactive"}
{"molecule": "OCC(O)CC(F)(F)C(F)(F)C(F)(F)C(F)(F)C(F)(F)C(F)(F)C(F)(F)C(F)(F)F (stereo not drawn)", "class.label": "inactive"}
{"molecule": "Oc1ccc2c(c1)CCC2", "class.label": "inactive"}
{"molecule": "CN(N=O)C(=O)N[C@@H]1[C@@H](O)[C@H](O)[C@@H](CO)O[C@@H]1O", "class.label": "inactive"}
{"molecule": "Cc1ccc2c(c1)OCC(=O)CO2", "class.label": "inactive"}
{"molecule": "CC(C)CCCC(C)CCO (stereo not drawn)", "class.label": "inactive"}
{"molecule": "O=C(O)CCC(F)(F)C(F)(F)C(F)(F)C(F)(F)C(F)(F)C(F)(F)C(F)(F)F", "class.label": "inactive"}
{"molecule": "O=C1OC(=O)c2ccc3c4c(ccc1c24)C(=O)OC3=O", "class.label": "active"}
{"molecule": "COC(F)(C(F)F)C(F)(F)F (stereo not drawn)", "class.label": "inactive"}

====

method: CCTE_Shafer_MEA_dev_spike_duration_mean: CCTE's Neural Network Formation Assay for Mean Spike Duration, Shafer Lab (AID 2284051);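 note: mean network spike duration pooled as area under curve over DIV 5 to 12 recordings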;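 for AC50: potency for a decrease in mean network spike duration versus DMSO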
Activity calls are given as the source filed them. How the source made its calls: active means hit-call score of the fitted dose curve at least 0.9, where 1 is the maximum; inactive means score below 0.9.
readout.kind: AC50

{"sample.smiles": "OCCCCC(F)(F)C(F)(F)C(F)(F)C(F)(F)F", "endpoint.value": "inactive"}
{"sample.smiles": "OCC(F)(F)C(F)(F)C(F)(F)C(F)(F)C(F)(F)C(F)(F)C(F)(F)C(F)(F)CO", "endpoint.value": "15 µM (active)"}
{"sample.smiles": "OCC(F)(F)C(F)(F)C(F)(F)CO", "endpoint.value": "inactive"}

====

method: ACEA_ER_AUC_viability: ACEA Biosciences xCELLigence Real-Time Cell Analysis on Estrogen Receptor Agonism for Viability (AID 2283782);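 note: continuous compound exposure with impedance area under curve over 80 h; hit means loss of impedance signal meaning reduced cell growth or viability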
Records with an inconclusive call do not appear. Calls of active or inactive are those of the source. How the source made its calls: active means hit-call score of the fitted dose curve at least 0.9, where 1 is the maximum; inconclusive means response in the unintended direction; inactive means score below 0.9.
Classes used: y (active), n (inactive)

{"molecule": "CC(C)=CCCC(C)O (stereo not drawn)", "class.label": "n"}
{"molecule": "COCCOCCC[Si](C)(O[Si](C)(C)C)O[Si](C)(C)C", "class.label": "y"}
{"molecule": "Brc1nc2ccccc2s1", "class.label": "n"}
{"molecule": "O=C1OC(=O)c2ccc3c4c(ccc1c24)C(=O)OC3=O", "class.label": "n"}
{"molecule": "Nc1cccnc1N", "class.label": "y"}
{"molecule": "O=C1c2ccccc2C(=O)c2c(Cl)cccc21", "class.label": "n"}
{"molecule": "O=C(c1ccccc1)c1ccc(Cl)cc1", "class.label": "y"}
{"molecule": "CN1CN(C)CN(C)C1", "class.label": "n"}
{"molecule": "CCn1c2ccccc2c2ccccc21", "class.label": "y"}
{"molecule": "NC(=O)C(F)(F)C(F)(F)C(F)(F)F", "class.label": "n"}
{"molecule": "CCN=c1cc2oc3cc(NCC)c(C)cc3c(-c3ccccc3C(=O)OCC)c-2cc1C", "class.label": "y"}
{"molecule": "CCCCCCCCCCCCC[N+](C)(C)Cc1ccccc1", "class.label": "y"}
{"molecule": "O=C(O)CCC(F)(F)C(F)(F)C(F)(F)F", "class.label": "n"}
{"molecule": "CCOCN(C(=O)CS(=O)(=O)O)c1c(C)cccc1CC", "class.label": "n"}
{"molecule": "O=C=NCc1cccc(CN=C=O)c1", "class.label": "n"}
{"molecule": "CCCCCCCCCCCCCC[P+](CCCC)(CCCC)CCCC", "class.label": "y"}
{"molecule": "COC(=O)c1ccc(C=O)cc1", "class.label": "n"}
{"molecule": "Cc1ccc2c(c1)OCC(=O)CO2", "class.label": "n"}
{"molecule": "O=S(=O)(O)CCC(F)(F)C(F)(F)C(F)(F)C(F)(F)C(F)(F)C(F)(F)C(F)(F)C(F)(F)F", "class.label": "n"}
{"molecule": "CCc1cccc(C)c1N(C(=O)C(=O)O)C(C)COC (stereo not drawn)", "class.label": "n"}
{"molecule": "Nc1cc([N+](=O)[O-])cc(Cl)c1O", "class.label": "n"}
{"molecule": "CCN=C1C=CC(=C(c2ccc(N(CC)CC)cc2)c2ccc(N(CC)CC)cc2)c2ccccc21", "class.label": "y"}
{"molecule": "CCCCCCCCCCCC(=O)Cl", "class.label": "y"}
{"molecule": "CCCC(=O)OCC(COC(=O)CCC)OC(=O)CCC", "class.label": "n"}
{"molecule": "CC1=CCC(=O)O1", "class.label": "n"}
{"molecule": "NC(=O)C(F)(F)C(F)(F)C(F)(F)C(F)(F)C(F)(F)C(F)(F)C(F)(F)F", "class.label": "n"}
{"molecule": "O=S(=O)(O)c1ccc(Cl)cc1", "class.label": "n"}
{"molecule": "CC(C)OC(=O)COc1ccc(Cl)cc1Cl", "class.label": "y"}

Reference for the values: PubChem BioAssay (EPA / NIEHS)
